# System name: T1, Papain (UniProt P00784 134-345)
# T1 chain: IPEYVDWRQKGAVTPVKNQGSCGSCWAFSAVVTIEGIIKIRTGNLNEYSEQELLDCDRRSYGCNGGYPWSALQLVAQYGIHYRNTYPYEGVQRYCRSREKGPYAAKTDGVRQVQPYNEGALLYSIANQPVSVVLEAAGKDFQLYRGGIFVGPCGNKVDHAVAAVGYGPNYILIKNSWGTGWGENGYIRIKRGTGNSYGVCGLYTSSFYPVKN
Property measured: Ki (nM)
Report the figure in nM without appending any unit label.

For record Recombinant cystatin C (CysC) (natural protein, human, UniProt P01034 27-146, looked up, Human cystatin C without its signal peptide of 26 amino acids; It was cloned through NdeI and BamHI into pET11a, so an initiator methionine is likely; also called unlinked CysC) SSPGKPPRLVGGPMDASVEEEGVRRALDFAVGEYNKASNDMYHSRALQVVRARKQIVAGVNYFLDVELGRTTCTKTQPNLDNCPFHDQPHLKRKAFCSFQIYAVPWQGTMTLSKSTCQDA the listed Ki is 85.5
